The reported measurements were obtained from a melting point compilation (Tetko et al.; mined from patent text by program, amines drawn as free bases though some values may be those of a salt).

melting point by entry:

Answered cases to consult:
## Input Please give the measured melting point for this compound: CC1Nc2ccc(-c3ccc(C#N)[nH]3)cc2C(C)(C)O1 (stereo unspecified)
## Output 201 to 202 °C

## Input Please give the measured melting point for this compound: CCCCCCCCCCCCCCCCCCOc1cn(-c2ccc(OCc3ccccc3)cc2)c(CNCCCN(C)C)cc1=O
## Output 103 to 109 °C

## Input Please give the measured melting point for this compound: Cc1cccc(-c2nc(N)sc2-c2ccnc(-c3ccc(C(=O)NC4CCOCC4)cc3)c2)n1
## Output 230 to 232 °C

## Input Please give the measured melting point for this compound: Cc1ccccc1C(=O)P1(=O)Oc2ccccc2-c2ccccc21 (stereo unspecified)
## Output 102 to 104 °C

Next:
## Input Please give the measured melting point for this compound: Cc1cc(N(C)C(=O)OC(C)(C)C)c(C)c(C)c1O
## Output 163 to 166 °C

## Input Please give the measured melting point for this compound: CCOc1cc(C(O)C(C)C)cc2c1OC(C)(C)C2 (stereo unspecified)
## Output 100 to 101 °C

###

melting point by entry:

Answered cases to consult:
## Input Please give the measured melting point for this compound: O=C(O)CC1(c2ccc(Cl)cc2)CNC(=O)C1 (configuration not stated)
## Output 190 to 191 °C

## Input Please give the measured melting point for this compound: CN1CCC(Nc2nccc(Oc3ccc(NC(=O)c4cc(F)cc(N5CCOCC5)c4)c4ccccc34)n2)CC1
## Output 128 to 129 °C

## Input Please give the measured melting point for this compound: Cc1c(S(=O)(=O)N(O)C(=N)Nc2ccc(Cl)c(Cl)c2)sc2ccc(Cl)cc12
## Output 232 to 233 °C

## Input Please give the measured melting point for this compound: CC1C(=O)Nc2c(C(=O)c3ccc(Br)cc3)cccc21 (configuration not stated)
## Output 245 to 247 °C

## Input Please give the measured melting point for this compound: O=C(O)c1ccc(-c2nc(-c3ccc(Cl)s3)cs2)cc1
## Output 283 to 284 °C

Next:
## Input Please give the measured melting point for this compound: O=c1[nH]c2ccc(Cl)cc2n1C1CCNCC1
## Output > 300 °C

## Input Please give the measured melting point for this compound: COCCOCc1c(F)cccc1-c1ccc2nc(-c3ccc(Cl)cc3)cn2c1
## Output 104 to 105 °C

###

melting point by entry:

## Input Please give the measured melting point for this compound: CC1(C)C2CC[C@]1(C)C(=O)C(C(=O)Nc1cc(Cl)cc(Cl)c1)C2=O (stereo partly drawn)
## Output 112 to 114 °C

## Input Please give the measured melting point for this compound: Cc1cc(CC(C)(C)CO)cc(C)c1O
## Output 133 to 134 °C

## Input Please give the measured melting point for this compound: CC(=O)c1ccc2sc3ccccc3c2c1
## Output 97 to 100 °C

## Input Please give the measured melting point for this compound: CCOC(=O)C1=Cc2cc(Cl)cc(C)c2NC1C(F)(F)F (stereo not drawn)
## Output 154 to 155 °C

## Input Please give the measured melting point for this compound: N#CNc1ccccc1-c1ccccc1
## Output 85 to 87 °C

## Input Please give the measured melting point for this compound: Cc1c(-c2ccccc2)sc(N2C(=O)c3ccccc3C2=O)c1C(=O)c1ccc(Cl)cc1
## Output 223 to 225 °C

Now look at this one.
## Input Please give the measured melting point for this compound: O=C1C[C@H](O)[C@H](CC2CCCCC2)N1
## Output 141 to 143 °C

###

recorded_metric: melting point

Answered cases to consult:
## Input Please give the measured melting point for this molecule: O=CNC1=NN(c2ccccc2)CC1
## Output 140 to 141 °C

## Input Please give the measured melting point for this molecule: COC(NC(=O)c1ccccc1O)C(Cl)(Cl)Cl (stereo unspecified)
## Output 117 to 118 °C

## Input Please give the measured melting point for this molecule: CCOCCn1c(SC2CCN(C(=O)c3cc(C)cc(C)c3)C(Cc3ccccc3)C2)nc2ccccc21 (stereo unspecified)
## Output 147 °C

## Input Please give the measured melting point for this molecule: CC(C)(C)OC(=O)N1CCc2c(n(CCO)c3cc(Cl)cc(Cl)c23)CC1
## Output 166 to 167 °C

Next:
## Input Please give the measured melting point for this molecule: OC1CSC(Oc2cccnc2-c2ccc(F)cc2)C(O)C1O (stereo unspecified)
## Output 110 °C

## Input Please give the measured melting point for this molecule: CCCC(=O)c1cnc2c(OCCOC)cccc2c1Nc1ccc(F)cc1C
## Output 124 to 125 °C

###

recorded_metric: melting point

Answered cases to consult:
## Input Please give the measured melting point for this compound: C#CCN(C(=O)c1cnccc1C(F)(F)F)S(=O)(=O)c1cccc(Cl)c1
## Output 82 to 85 °C

## Input Please give the measured melting point for this compound: CCc1nc2c(C)cc(C)nc2n1Cc1ccc(C(CC(=O)NS(C)(=O)=O)c2ccccc2)cc1 (stereo not drawn)
## Output 118 to 123 °C

Next:
## Input Please give the measured melting point for this compound: Cc1cccc(C(=O)Cc2ccnc(N)c2)c1
## Output 119 to 120 °C

###

melting point by entry:

Answered cases to consult:
## Input Please give the measured melting point for this molecule: OC1Cc2ccc(F)cc2Sc2ccc(I)cc21 (centres undefined)
## Output 162 °C

## Input Please give the measured melting point for this molecule: COCCOc1cc(CCC(=O)O)n(Cc2ccc(Cl)cc2Cl)n1
## Output 111 to 113 °C

## Input Please give the measured melting point for this molecule: COc1ccc(CC2SC(=O)NC2=O)c2c1N(CC(=O)O)C(=O)CC2 (centres undefined)
## Output 251 to 255 °C

## Input Please give the measured melting point for this molecule: COc1ccc(-c2ccncc2)cc1-c1ccc(Oc2ccccc2)cc1
## Output 173 to 218 °C

Next:
## Input Please give the measured melting point for this molecule: CC(NC(=O)CCCBr)c1ccccc1 (centres undefined)
## Output 62 to 63 °C

## Input Please give the measured melting point for this molecule: NC(=S)c1c(Cl)c(-c2cccnc2)n2c1CN(C(=O)Nc1ccc(F)cc1)CC2
## Output 214 to 216 °C

## Input Please give the measured melting point for this molecule: CCOc1ccc(-c2nnc(Nc3ccc(Br)c(Cl)c3)s2)cc1
## Output 225 to 226 °C

## Input Please give the measured melting point for this molecule: Cc1ccc(Cn2nc(-c3cc(C(C)(C)C)c(O)c(C(C)(C)C)c3)c3cccnc32)cc1
## Output 134 to 135 °C

## Input Please give the measured melting point for this molecule: Cc1ccccc1S(=O)(=O)NC(=O)c1ccc2c(c1)CCN2Cc1cccc([N+](=O)[O-])c1
## Output 159 to 163 °C

## Input Please give the measured melting point for this molecule: CCOCc1cc2cc(Br)ccc2oc1=Nc1ccc(F)cc1
## Output 153 to 154 °C

## Input Please give the measured melting point for this molecule: CC(C)(C)OC(=O)N1C(=O)C(C2=COc3ccccc3O2)=C(c2cn(C(=O)OC(C)(C)C)c3cc(OCc4ccccc4)ccc23)C1=O
## Output 81 °C

## Input Please give the measured melting point for this molecule: N#Cc1c(C(F)(F)F)[nH]c2ccc(Br)cc12
## Output 188 to 192 °C

## Input Please give the measured melting point for this molecule: CCOC(=O)C1(NC(=O)Nc2cccc(C)c2)N=C(c2ccc(Cl)cc2)c2ccccc2-n2c(C)nnc21 (centres undefined)
## Output 168 to 172 °C

## Input Please give the measured melting point for this molecule: O=c1c2ccsc2ccn2ccnc12
## Output 267 °C

###

recorded_metric: melting point

Answered cases to consult:
## Input Please give the measured melting point for this compound: CC(C)(C)CC(=O)N[C@H]1CC[C@H](CCN2CCN(c3nccc4c3CCO4)CC2)CC1
## Output 192 °C

## Input Please give the measured melting point for this compound: CON(C(=O)c1cn(C)nc1C(F)F)C(C)c1cccc(-c2ccc(Cl)c(Cl)c2)c1 (centres undefined)
## Output 162 to 164 °C

## Input Please give the measured melting point for this compound: Cc1cc2nc(-c3cc(C(F)(F)F)nn3-c3ccc(S(C)(=O)=O)cc3)sc2cc1F
## Output 193 to 194 °C

Next:
## Input Please give the measured melting point for this compound: CC(=O)NC1CCc2c([nH]c3cc(O)ccc23)C1 (centres undefined)
## Output 245 to 246 °C

## Input Please give the measured melting point for this compound: COc1ccnc(C(C)S(=O)c2nc3cc(OC(F)(F)C(F)F)ccc3[nH]2)c1 (centres undefined)
## Output 156 to 157 °C

## Input Please give the measured melting point for this compound: FC(F)(F)c1ccc(/C=C/c2nc(COc3ccc(CCCn4ccnn4)cc3)co2)cc1
## Output 157 to 158 °C

## Input Please give the measured melting point for this compound: Fc1cc(Cl)cc(Cn2cccc2)c1
## Output 48 to 50 °C

## Input Please give the measured melting point for this compound: c1ccc(-c2ccn3nccc3n2)cc1
## Output 122 to 124 °C
